# TARGET OF ASSAY: 5-hydroxytryptamine receptor 2A (Homo sapiens, UniProt P28223)
# Sequence (P28223 whole entry): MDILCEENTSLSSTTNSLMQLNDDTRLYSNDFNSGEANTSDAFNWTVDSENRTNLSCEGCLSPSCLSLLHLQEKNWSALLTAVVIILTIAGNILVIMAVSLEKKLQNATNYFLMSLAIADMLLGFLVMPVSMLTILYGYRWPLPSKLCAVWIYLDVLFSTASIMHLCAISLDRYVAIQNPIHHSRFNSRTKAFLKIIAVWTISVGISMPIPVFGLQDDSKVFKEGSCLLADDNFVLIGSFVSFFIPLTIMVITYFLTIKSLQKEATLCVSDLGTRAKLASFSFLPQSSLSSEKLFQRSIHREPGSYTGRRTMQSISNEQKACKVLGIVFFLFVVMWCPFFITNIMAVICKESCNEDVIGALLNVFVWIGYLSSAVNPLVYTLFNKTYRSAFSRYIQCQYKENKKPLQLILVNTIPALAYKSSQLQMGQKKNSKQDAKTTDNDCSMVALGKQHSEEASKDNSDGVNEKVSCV
# PROTOCOL DESCRIPTION: Displacement of [3H]-ketanserin from human recombinant 5HT-2A receptor expressed in CHOK1 cell membranes at 10 uM after 60 mins relative to control
# RECORDED CONDITIONS: CHO-K1
READOUT NAME: inhibition (%)
Could you give me the number in %? Just the number is fine.

Answered cases to consult:
>  <COMPOUND>
CCN(CC)c1nc(Nc2ccccc2C)c2cn[nH]c2n1

>  <OBSERVED RESULT>
66

$$$$
>  <COMPOUND>
COc1cccc(Nc2nc(N3CCN(c4ccc(F)cc4)CC3)nc3[nH]ncc23)c1

>  <OBSERVED RESULT>
100

$$$$

For this compound ( `CN(C)c1nc(Nc2ccc(F)cc2)c2cn[nH]c2n1` ), measured inhibition is 79

What the record says about `CC1CCN(c2nc(Nc3ccc(F)cc3)c3cn[nH]c3n2)CC1` : inhibition is 83

Sample `Fc1ccc(Nc2nc(N3CCOCC3)nc3[nH]ncc23)cc1` ; inhibition observed: 83

According to the records, this compound `Fc1ccc(Nc2nc(NC3CCCC3)nc3[nH]ncc23)cc1` displays inhibition of 72

`COc1ccc(Nc2nc(N3CCN(c4ccc(F)cc4)CC3)nc3[nH]ncc23)cc1` has a reported inhibition of 92

Lab note: CC1CC(C)CN(c2nc(Nc3ccc(F)cc3)c3cn[nH]c3n2)C1 (centres undefined) gave inhibition of 75

Entry under test: `CCNc1nc(Nc2ccccc2)c2cn[nH]c2n1` . Its inhibition was 6

Form field inhibition, entry `OCCCNc1nc(Nc2ccc(F)cc2)c2cn[nH]c2n1` : 26

response.value for `Fc1ccc(Nc2nc(NC3CCCCC3)nc3[nH]ncc23)cc1` (field: inhibition) = 73

Reported inhibition of `Fc1ccc(Nc2nc(N3CCN(c4ccccc4)CC3)nc3[nH]ncc23)cc1` : 100

* * *

// pIC50 lookup, one value per entry
# TARGET OF ASSAY: 5-hydroxytryptamine receptor 2C (Homo sapiens)
# Sequence (P28335 whole entry): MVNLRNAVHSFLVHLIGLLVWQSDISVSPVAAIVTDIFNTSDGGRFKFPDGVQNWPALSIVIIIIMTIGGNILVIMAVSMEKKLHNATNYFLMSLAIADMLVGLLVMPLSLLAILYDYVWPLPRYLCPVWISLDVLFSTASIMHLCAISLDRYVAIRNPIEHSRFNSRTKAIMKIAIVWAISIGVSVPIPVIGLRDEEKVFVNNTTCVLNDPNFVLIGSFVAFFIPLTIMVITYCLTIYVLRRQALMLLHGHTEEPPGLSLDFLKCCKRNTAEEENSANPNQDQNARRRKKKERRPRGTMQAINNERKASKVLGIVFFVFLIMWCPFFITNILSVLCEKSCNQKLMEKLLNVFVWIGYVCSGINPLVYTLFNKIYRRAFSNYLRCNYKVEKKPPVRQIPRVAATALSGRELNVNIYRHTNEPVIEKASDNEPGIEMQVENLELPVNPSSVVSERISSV
# PROTOCOL DESCRIPTION: Antagonist activity at serotonin-activated human recombinant 5HT-2C receptor expressed in HEK293 cells assessed as decrease in intracellular calcium level after 5 mins measured for 1 min by fluorescence assay
# Type: functional, cell-based
# RECORDED CONDITIONS: read-out: EC50 (the source's name)
Keep in mind that pIC50 stands for -log10 of concentration in molar terms.

As a guide, the following entries are already answered.
>  <CPD SMILES>
CN1CCN(c2nc3c(c(Nc4ccc(F)cc4)n2)CCNCC3)CC1

>  <READOUT NAME>
pIC50

>  <OBSERVED RESULT>
5.82

$$$$
>  <CPD SMILES>
COc1cccc(Nc2nc(Cc3ccccc3)nc3c2CCNCC3)c1

>  <READOUT NAME>
pIC50

>  <OBSERVED RESULT>
8.04

$$$$

Documented pIC50 of `COc1cccc(Nc2nc(N3CCN(C)CC3)nc3c2CCNCC3)c1` : 5.64

For reference, reported pIC50 for `Fc1ccc(Nc2nc(Cc3ccccc3)nc3c2CCNCC3)cc1` stands at 8.59

* * *

# PROTOCOL DESCRIPTION: Plasma concentration in Sprague-Dawley rat at 10 mg/kg, po measured at 8 hrs
# Format: ADME, organism-based
# Set-up: dose 10 mg/kg, route oral
READOUT NAME: concentration at 8 h (ng/mL)
Give just the number in ng/mL; leave the unit off.

Given item `Cl.Clc1cccc(Nc2nc(Cc3ccccc3)nc3c2CCNCC3)c1` , the value recorded as its concentration at 8 h is 30

* * *

# TARGET OF ASSAY: 5-hydroxytryptamine receptor 6 (Homo sapiens, UniProt P50406)
# Sequence (P50406 whole entry): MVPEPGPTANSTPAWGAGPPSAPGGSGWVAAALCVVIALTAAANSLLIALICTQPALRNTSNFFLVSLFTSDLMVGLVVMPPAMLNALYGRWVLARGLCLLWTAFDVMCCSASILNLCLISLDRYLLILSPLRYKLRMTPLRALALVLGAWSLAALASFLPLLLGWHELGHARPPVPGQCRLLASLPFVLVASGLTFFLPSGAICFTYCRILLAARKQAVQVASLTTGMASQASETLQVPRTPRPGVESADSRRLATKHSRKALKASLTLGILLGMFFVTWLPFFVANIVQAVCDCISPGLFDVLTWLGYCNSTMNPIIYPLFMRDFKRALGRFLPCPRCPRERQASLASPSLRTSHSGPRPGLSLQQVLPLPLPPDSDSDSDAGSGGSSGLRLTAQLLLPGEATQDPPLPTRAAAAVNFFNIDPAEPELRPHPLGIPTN
# PROTOCOL DESCRIPTION: Displacement of [3H]-LSD from human recombinant 5HT-6 receptor expressed in CHOK1 cell membranes after 60 mins
READOUT NAME: pIC50
FYI, pIC50 means -log10 of a concentration in mol per litre.

Illustrative cases are given below, each with its answer.
>  <CPD SMILES>
Fc1cccc(Nc2nc(Cc3ccccc3)nc3c2CCNCC3)c1

>  <OBSERVED RESULT>
7.65

$$$$
>  <CPD SMILES>
c1ccc(Cc2nc3c(c(Nc4ccccc4)n2)CCNCC3)cc1

>  <OBSERVED RESULT>
7.43

$$$$
>  <CPD SMILES>
Cl.Clc1cccc(Nc2nc(Cc3ccccc3)nc3c2CCNCC3)c1

>  <OBSERVED RESULT>
7.66

$$$$

// moving on: another record for pIC50
Kindly note the recorded pIC50 for `COc1cccc(Nc2nc(Cc3ccccc3)nc3c2CCNCC3)c1` , which is 7.52

* * *

# TARGET OF ASSAY: 5-hydroxytryptamine receptor 2A (Homo sapiens, UniProt P28223)
# PROTOCOL DESCRIPTION: Displacement of [3H]-ketanserin from human recombinant 5HT-2A receptor expressed in CHOK1 cell membranes at 10 uM after 60 mins relative to control
# RECORDED CONDITIONS: CHO-K1
READOUT NAME: inhibition (%)
Report the value in % with no unit label.

Past entries and their recorded results:
>  <CPD SMILES>
C=CCNc1nc(Nc2ccc(F)cc2)c2cn[nH]c2n1

>  <inhibition / %>
60

$$$$
>  <CPD SMILES>
Cc1ccc(CNc2nc(Nc3ccc(F)cc3)c3cn[nH]c3n2)cc1

>  <inhibition / %>
93

$$$$
>  <CPD SMILES>
Fc1ccc(Nc2nc(N3CCN(Cc4ccccc4)CC3)nc3[nH]ncc23)cc1

>  <inhibition / %>
100

$$$$

Record `CN1CCN(c2nc(Nc3ccc(Cl)cc3)c3cn[nH]c3n2)CC1` has 5-hydroxytryptamine receptor 2A (Homo sapiens, UniProt P28223) inhibition equal to 100

Observed inhibition on 5-hydroxytryptamine receptor 2A (Homo sapiens, UniProt P28223), entry `COc1ccccc1N1CCN(c2nc(Nc3ccc(F)cc3)c3cn[nH]c3n2)CC1` , equals 93

Record for `Fc1ccc(Nc2nc(NCCN3CCOCC3)nc3[nH]ncc23)cc1` under target or system 5-hydroxytryptamine receptor 2A (Homo sapiens, UniProt P28223): inhibition reported as 51

inhibition on 5-hydroxytryptamine receptor 2A (Homo sapiens, UniProt P28223) for `Fc1ccc(Nc2nc(N3CCCCC3)nc3[nH]ncc23)cc1` is 86

Measured inhibition (5-hydroxytryptamine receptor 2A (Homo sapiens, UniProt P28223)), entry `CCN(CC)c1nc(Nc2ccc(C)c(C)c2)c2cn[nH]c2n1` : 85

Lab note: compound `CNc1nc(Nc2ccc(F)cc2)c2cn[nH]c2n1` tested on 5-hydroxytryptamine receptor 2A (Homo sapiens, UniProt P28223); recorded inhibition was 49

Hey, 5-hydroxytryptamine receptor 2A (Homo sapiens, UniProt P28223) data for `CN1CCN(c2nc(Nc3ccccc3)c3cn[nH]c3n2)CC1` : inhibition came out at 100

* * *

# PROTOCOL DESCRIPTION: AUClast in Sprague-Dawley rat at 10 mg/kg, iv
# Type: ADME, organism-based
# Design: time 0 - last, dose 10 mg/kg, route intravenous
# RECORDED CONDITIONS: plasma
READOUT NAME: AUC(0-t)

Field AUC(0-t) (entry `Cl.Clc1cccc(Nc2nc(Cc3ccccc3)nc3c2CCNCC3)c1` ) reads 1730 ng·h/mL

* * *

# PROTOCOL DESCRIPTION: Ratio of drug level from brain to plasma in Sprague-Dawley rat at 10 mg/kg, iv measured at 2 hrs
# Type: ADME, organism-based
# Parameters: dose 10 mg/kg, route intravenous
# RECORDED CONDITIONS: read-out: BPR
READOUT NAME: Kp at 2 h
A bare number is all that is needed in reply.

For `Cl.Clc1cccc(Nc2nc(Cc3ccccc3)nc3c2CCNCC3)c1` the compound record lists Kp at 2 h as 9.33

* * *

# PROTOCOL DESCRIPTION: Terminal half life in Sprague-Dawley rat at 10 mg/kg, iv
# Assay type: ADME, organism-based
# Parameters: dose 10 mg/kg, route intravenous
# RECORDED CONDITIONS: in vivo, read-out: beta t1/2
READOUT NAME: half-life (min)
Lab book: enter the figure in min, no units written.

Given item `Cl.Clc1cccc(Nc2nc(Cc3ccccc3)nc3c2CCNCC3)c1` , the value recorded as its half-life is 135

* * *

inhibition values for the compounds below.
# TARGET OF ASSAY: 5-hydroxytryptamine receptor 2C (Homo sapiens)
# PROTOCOL DESCRIPTION: Displacement of [3H]-mesulergine from human recombinant 5HT-2C receptor expressed in CHOK1 cell membranes at 10 uM after 30 mins relative to control
# RECORDED CONDITIONS: CHO-K1
Write it as a number; the unit % goes unstated.

The following compounds have reported results that may help.
>  <CPD SMILES>
C=CCNc1nc(Nc2ccc(F)cc2)c2cn[nH]c2n1

>  <inhibition [%]>
41

$$$$
>  <CPD SMILES>
COCCNc1nc(Nc2ccc(F)cc2)c2cn[nH]c2n1

>  <inhibition [%]>
18

$$$$
>  <CPD SMILES>
CCN(CC)c1nc(Nc2ccc(C)c(C)c2)c2cn[nH]c2n1

>  <inhibition [%]>
52

$$$$
>  <CPD SMILES>
Fc1ccc(Nc2nc(NCc3ccccc3)nc3[nH]ncc23)cc1

>  <inhibition [%]>
82

$$$$
>  <CPD SMILES>
Fc1ccc(Nc2nc(N3CCCCC3)nc3[nH]ncc23)cc1

>  <inhibition [%]>
89

$$$$

Below: the item to evaluate.
Recorded inhibition for `Fc1ccc(Nc2nc(NC3CCCC3)nc3[nH]ncc23)cc1` on 5-hydroxytryptamine receptor 2C (Homo sapiens) was 35

Data origin: ChEMBL document CHEMBL2390866
